Target: G/T mismatch-specific thymine DNA glycosylase (Homo sapiens);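 note: human TDG cleavage of quenched duplex DNA oligonucleotides coupled to APE1, strand release read as fluorescence at 594 nm, inhibition of TDG activity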
Conditions: Compound Concentration 10.0 uM, Hit No
The reader will find reported inhibition values listed item by item below.
measurement_kind: inhibition (%)

compound: Cc1nc(N2CC[C@@H](O)C2)ncc1-c1cc(C(F)(F)F)cc2[nH]ncc12
output_unit: %
val: 48
--
compound: C[C@@H](NC(=O)Nc1cc2[nH]ncc2c(CO)n1)c1ccccc1
output_unit: %
val: 70.5
--
compound: COc1ccc(Br)cc1S(=O)(=O)NC(=O)/C=C/c1ccccc1Cc1ccc2ccccc2c1
output_unit: %
val: 2.91
--
compound: COCCc1ccc(-c2c(C)nc3c(N4CCOCC4)ccnn23)cn1
output_unit: %
val: 47.5
--
compound: CC1=C(C(=O)Nc2cc3cn[nH]c3cc2F)C(c2ccc(C(F)(F)F)cc2)CC(=O)N1 (stereo not drawn)
output_unit: %
val: 34.3
--
compound: NC(=O)c1ccc(CNC(=O)NC[C@H]2CN(Cc3ccc(Cl)c(Cl)c3)CCO2)cc1
output_unit: %
val: 19.2
--
compound: O=C(c1ccc2c(ccn2-c2ccc(F)cc2)c1)N1CC(N2CCN(C(=O)c3nccs3)CC2)C1
output_unit: %
val: 45.8
--
compound: CCOc1ccc(Cc2nc3cc(C(=O)N(CC)CC)ccc3n2CC2CCCCC2)cc1
output_unit: %
val: 2.76

###

Biological target: Uracil-DNA glycosylase (Homo sapiens);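 note: UNG excision on a quenched double-stranded DNA oligo probe, with APE1 added for strand incision and turnover, read as fluorescence at 594 nm as strands separate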
Conditions: Compound Concentration 10.0 uM, Hit No
The reader will find reported inhibition values listed item by item below.
measurement_kind: inhibition (%)

compound: CC(C)NCC(O)COc1cccc2ccccc12 (stereo unspecified)
val: -6.12
--
compound: Cc1cccc(C2CN(C)CCc3c2cc(O)c(O)c3Cl)c1 (stereo unspecified)
val: -2.8
--
compound: O=c1ccc2c(OCCCCc3ccccc3)c3ccoc3cc2o1
val: -2.86
--
compound: Cc1c(C(=O)Nc2cccc(C(F)(F)F)c2)cc(-c2ccccc2)n1CCCN1CCOCC1
val: -3.84
--
compound: CN(C)c1ncnc(-c2ccc3nc(Nc4cc(CN5CCN(C(=O)CC(F)(F)F)CC5)ccn4)[nH]c3c2)c1Cl
val: 1.3
--
compound: CC[C@@H]1CN(C(=O)NCC(F)(F)F)C[C@@H]1c1cnc2cnc3[nH]ccc3n12
val: 1.27

###

The reader will find reported inhibition values listed item by item below.
Molecular target: Endonuclease 8-like 1 (Homo sapiens) (UniProt Q96FI4);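 note: fluorescence at 594 nm from quenched duplex DNA oligonucleotides released by NEIL1 cleavage and strand separation, reported as reduction of this enzyme activity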
Sequence (Q96FI4 whole entry): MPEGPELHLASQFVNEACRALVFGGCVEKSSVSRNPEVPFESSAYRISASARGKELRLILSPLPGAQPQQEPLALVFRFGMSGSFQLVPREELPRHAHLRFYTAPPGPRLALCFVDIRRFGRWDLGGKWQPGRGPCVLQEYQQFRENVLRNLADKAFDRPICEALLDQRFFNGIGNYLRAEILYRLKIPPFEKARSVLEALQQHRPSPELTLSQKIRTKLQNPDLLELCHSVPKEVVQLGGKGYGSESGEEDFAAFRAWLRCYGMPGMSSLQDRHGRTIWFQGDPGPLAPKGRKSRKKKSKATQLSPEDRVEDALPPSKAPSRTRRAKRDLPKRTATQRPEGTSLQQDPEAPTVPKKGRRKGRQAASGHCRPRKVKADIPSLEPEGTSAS
Settings: Compound Concentration 10.0 uM, Hit No

cpd_smiles: Cc1cccc([C@H](C)c2c[nH]cn2)c1C
output_unit: %
inhibition: -5.1
--
cpd_smiles: c1ccc(Cn2c(N3CCNCC3)nc3ccccc32)cc1
output_unit: %
inhibition: 3.42
--
cpd_smiles: COc1ccc2cc(S(=O)(=O)N[C@H](CC(=O)N[C@H](Cc3ccc(CN4[C@H](C)CCC[C@@H]4C)cc3)C(=O)N(C)C(C)C)c3ccc4c(c3)OCO4)ccc2c1
output_unit: %
inhibition: 12.6

###

Target: N-glycosylase/DNA lyase (Homo sapiens) (UniProt O15527);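 note: OGG1 cleavage of a quenched duplex DNA oligonucleotide, coupled to APE1 for strand incision, read as fluorescence at 594 nm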
Sequence (O15527 whole entry): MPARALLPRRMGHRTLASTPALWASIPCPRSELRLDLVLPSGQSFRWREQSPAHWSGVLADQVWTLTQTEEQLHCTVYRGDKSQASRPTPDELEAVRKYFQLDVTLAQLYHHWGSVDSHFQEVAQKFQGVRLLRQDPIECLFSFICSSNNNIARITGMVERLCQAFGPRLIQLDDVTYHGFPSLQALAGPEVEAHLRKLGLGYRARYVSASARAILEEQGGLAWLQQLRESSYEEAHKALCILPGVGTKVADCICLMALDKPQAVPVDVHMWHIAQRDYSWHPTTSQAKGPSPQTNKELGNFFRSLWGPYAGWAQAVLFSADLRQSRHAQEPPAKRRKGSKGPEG
Settings: Compound Concentration 10.0 uM, Hit No
measurement_kind: inhibition (%)

molecule: CN1C[C@@H](NS(=O)(=O)N(C)C)C[C@@H]2c3cccc4c3c(cn4C)C[C@H]21
output_unit: %
val: -5.21

molecule: CC[C@H](CO)Nc1nc(NCc2ccccc2)c2ncn(C(C)C)c2n1
output_unit: %
val: -9.3

molecule: CN1CCN2c3ccccc3Cc3ccccc3C2C1 (centres undefined)
output_unit: %
val: -6.17

molecule: C[C@H](c1ccnc(Nc2nc3ccc(-c4cc(N(C)C)ncn4)cc3[nH]2)c1)N1CCN(C(=O)CC(F)(F)F)CC1
output_unit: %
val: -2.48

molecule: CCCCCCCCCCCCC/C=C/[C@@H](O)[C@@H](N)COP(=O)([O-])OCC[N+](C)(C)C
output_unit: %
val: 5.72

molecule: CC(=O)c1ccc2c(c1)[C@@H]1C=CC[C@@H]1[C@H](c1cc3c(cc1Br)OCO3)N2
output_unit: %
val: 2.12

molecule: O=[N+]([O-])c1ccc2nc(COCc3nc4ccc([N+](=O)[O-])cc4[nH]3)[nH]c2c1
output_unit: %
val: 7

molecule: COc1cc(-c2cn([C@H]3CCc4c(F)cccc4N(CC(F)(F)F)C3=O)nn2)ccc1-n1cnc(C)c1
output_unit: %
val: 6.38

molecule: O=C(NCc1ccccc1)c1ccc(S(=O)(=O)NCc2ccccc2)cc1
output_unit: %
val: 32.2

molecule: CC1=C(C#N)C(c2ccc3c(c2)c(NC(=O)c2ccccc2C)nn3C)C(C#N)=C(C)N1
output_unit: %
val: 7.85

molecule: CN1CCN(C(=O)C(C)(C)c2ccc(C(=O)Nc3cn4cc(-c5cc(C(C)(C)C)cc(C(C)(C)C)c5)ccc4n3)cc2)CC1
output_unit: %
val: 18.8

molecule: CCCCCCCCCCCCCCC[C@@H](O)[C@@H](N)COP(=O)(O)O
output_unit: %
val: -0.598

molecule: COc1cccc([C@H](O)C2CCN(CCc3ccc(F)cc3)CC2)c1OC
output_unit: %
val: -1.39

molecule: c1ccc(Cn2c(N3CCNCC3)nc3ccccc32)cc1
output_unit: %
val: -7.05

molecule: O=C1NC(c2ccccn2)Sc2ccccc21 (centres undefined)
output_unit: %
val: -4.34

molecule: CC[C@@H]1C(=O)N(C)c2cnc(Nc3ccc(C(=O)NC4CCN(C)CC4)cc3OC)nc2N1C1CCCC1
output_unit: %
val: -5.59

molecule: COc1ccnc(N2CCC3(CCCN(Cc4c[nH]c5ccccc45)C3=O)CC2)n1
output_unit: %
val: -2.11

molecule: FC(F)(F)c1ccc(N2CCNCC2)nc1Cl
output_unit: %
val: -4.95

molecule: Nc1nc(NCCc2ccc(O)cc2)nc2nc(-c3ccco3)nn12
output_unit: %
val: -7.81

molecule: Cn1ncnc1COc1nn2c(-c3cc(F)ccc3F)nnc2cc1C(C)(C)C
output_unit: %
val: -6.92

molecule: Cc1cc(SCc2sc(-c3ccc(C(F)(F)F)cc3)nc2C)ccc1OCC(=O)O
output_unit: %
val: 62.7

molecule: CCCCc1oc2ccccc2c1C(=O)c1cc(I)c(OCCN(CC)CC)c(I)c1
output_unit: %
val: 0.672

molecule: CC(C)(O)c1cncc(-c2nc3ccc(F)cc3n2C2CC2)c1
output_unit: %
val: 8.25

molecule: OCCN1CCN(CCCN2c3ccccc3Sc3ccc(Cl)cc32)CC1
output_unit: %
val: -8.6

molecule: C[C@@H](O[C@H]1OCCN(Cc2n[nH]c(=O)[nH]2)[C@H]1c1ccc(F)cc1)c1cc(C(F)(F)F)cc(C(F)(F)F)c1
output_unit: %
val: -7.13

molecule: CCCCC(=O)N(Cc1ccc(-c2ccccc2-c2nnn[nH]2)cc1)[C@H](C(=O)O)C(C)C
output_unit: %
val: -4.35

molecule: FC(F)(F)Oc1ccc(-c2ccc3nnc(C(F)(F)F)n3c2)cc1
output_unit: %
val: -7.36

molecule: O=C(c1ccc2c(ccn2-c2ccc(F)cc2)c1)N1CC(N2CCN(C(=O)c3nccs3)CC2)C1
output_unit: %
val: 5

molecule: CN(C)C(=O)N[C@H]1CC[C@H](CCN2CCN(c3cccc(Cl)c3Cl)CC2)CC1
output_unit: %
val: 1.62

molecule: COc1ccc(CC[C@@H](OC(=O)[C@H]2CCCCN2C(=O)[C@@H](c2cc(OC)c(OC)c(OC)c2)C2CCCCC2)c2cccc(OCCN3CCOCC3)c2)cc1OC
output_unit: %
val: -1.2

molecule: COc1cc2nc(N3CCN(C(=O)c4ccco4)CC3)nc(N)c2cc1OC
output_unit: %
val: 0.771

molecule: Clc1cccc(-n2nnnc2NCc2ccccc2Oc2ccccn2)c1Cl
output_unit: %
val: -2.45

molecule: CC(/C=C1\SC(=S)N(CCCC(=O)Nc2ccc(C(=O)O)c(O)c2)C1=O)=C\c1ccccc1
output_unit: %
val: 25.4

molecule: Cc1cc(C)c(N)c(C#Cc2cccc(F)c2)n1
output_unit: %
val: 4.23
